# Test system: Rattus norvegicus
# Protocol summary: Gastrointestinal toxicity in Albino rat assessed ulcer index at 300 umol/kg, po
# Applied conditions: in vivo
Readout name: UI
// keep it numeric: no unit symbol after the value

CC1=C(CC(=O)N2CCOCC2)c2cc(F)ccc2/C1=C\c1ccc(S(C)(=O)=O)cc1 : 0
CNC(=O)CC1=C(C)/C(=C/c2ccc(S(C)(=O)=O)cc2)c2ccc(F)cc21 : 0
CC1=C(CC(=O)Nc2ccccc2)c2cc(F)ccc2/C1=C\c1ccc(S(C)(=O)=O)cc1 : 0
COC(=O)CC1=C(C)/C(=C/c2ccc(S(C)(=O)=O)cc2)c2ccc(F)cc21 : 0
CC1=C(CC(=O)N2CCSCC2)c2cc(F)ccc2/C1=C\c1ccc(S(C)(=O)=O)cc1 : 4
CCCCNC(=O)CC1=C(C)/C(=C/c2ccc(S(C)(=O)=O)cc2)c2ccc(F)cc21 : 2
CCNC(=O)CC1=C(C)/C(=C/c2ccc(S(C)(=O)=O)cc2)c2ccc(F)cc21 : 0
CCCNC(=O)CC1=C(C)/C(=C/c2ccc(S(C)(=O)=O)cc2)c2ccc(F)cc21 : 1.4
CC1=C(CC(=O)N2CCCCC2)c2cc(F)ccc2/C1=C\c1ccc(S(C)(=O)=O)cc1 : 0

Let's switch to this molecule now.
Here "CCN(CC)C(=O)CC1=C(C)/C(=C/c2ccc(S(C)(=O)=O)cc2)c2ccc(F)cc21" was tested on Rattus norvegicus, and its UI came to 1
